// data source = PubChem BioAssay

Assay: inhibitors of TNFa-induced NFkB p65 translocation, primary screen, imaging, HUVEC, MLSMR starter and 10KST1 sets (AID 438);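 further: compound added about 3h40 before a 20 min TNFalpha stimulation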;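 on inhibition: signal is the nuclear over cytoplasmic p65 intensity ratio per well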
Conditions: HUVEC TNFa-induced p65 nuclear translocation; at 2 µM, stronger effect = higher value, 0% TNFa-plus-vehicle, 100% no-TNFa wells
Calls of active or inactive are those of the source.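 How the source made its calls: active means inhibition above 20% together with a positive visual image hit; inconclusive means visual image hit but inhibition not above 20%; inactive means no visual image hit.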
Listed here: items and their measured inhibition.

Past entries and their recorded results:
-- ask Would you kindly share the measured inhibition for COc1cccc2cc(C(=O)OC3CCN(C)CC3)c(=O)oc12 ?
-- reply -6.1% (inactive)

-- ask Query (molecule): Cc1ccc(-n2c(Cn3cnc4ccccc43)nnc2SCC(=O)O)cc1 ; field requested: inhibition
-- reply -9.8% (inactive)

-- ask I am curious: what inhibition value has been reported for O=C(C1CCC(CNc2c(N3CCCCC3)c(=O)c2=O)CC1)N1CCc2ccccc2C1 (configuration not stated) ?
-- reply 8.9% (inactive)

More entries:
-- ask I have this molecule here, CCC1CCc2c(sc3ncnc(N4CCOCC4)c23)C1 (configuration not stated) , and I need its recorded inhibition.
-- reply -4.4% (inactive)

-- ask Tell me the measured inhibition of O=C(Cn1nnc(-c2ccc(CN3CCOCC3)cc2)n1)NC1CCCCC1 , please.
-- reply 0.3% (inactive)

* * *

Assay: inhibitors of TNFa-induced NFkB p65 translocation, primary screen, imaging, HUVEC, MLSMR starter and 10KST1 sets (AID 438);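 further: compound added about 3h40 before a 20 min TNFalpha stimulation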
Conditions: HUVEC TNFa-induced p65 nuclear translocation; measured here: nuclei count (cytotoxicity indicator), at 2.08 µM
Quick rule for you: cell count at 500 or higher means criterion met, lower means criterion not met.

-- ask Given COC1CCCCC1Nc1cccc(SC)c1 (stereo unspecified) , state whether its cell count is at least 500.
-- reply criterion not met

New cases:
-- ask Is the recorded value of cell count equal to or greater than 500 for this compound? CCN(CC)CCOc1cccc(C(C)C)c1
-- reply criterion met

* * *

Target: Voltage-gated potassium channel subunit beta-2 (Rattus norvegicus) (UniProt P62483)
Sequence (P62483 whole entry, looked up): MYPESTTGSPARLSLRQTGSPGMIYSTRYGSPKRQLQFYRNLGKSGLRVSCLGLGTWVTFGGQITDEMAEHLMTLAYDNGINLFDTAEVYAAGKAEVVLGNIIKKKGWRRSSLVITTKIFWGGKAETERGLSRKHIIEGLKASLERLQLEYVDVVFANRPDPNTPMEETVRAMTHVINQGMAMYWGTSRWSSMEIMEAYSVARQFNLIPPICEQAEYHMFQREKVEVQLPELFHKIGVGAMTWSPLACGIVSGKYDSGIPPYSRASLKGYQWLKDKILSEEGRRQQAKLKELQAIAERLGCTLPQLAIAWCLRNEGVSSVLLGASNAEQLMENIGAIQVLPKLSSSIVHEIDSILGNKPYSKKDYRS
Experiment: enhancers of rat Kvbeta2 NADPH turnover – biochemical, NADPH fluorescence, primary screen (AID 623);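 further: fluorescence intensity change per second fitted from 20 to 320 s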
Conditions: Recombinant KvBeta, NADPH fluorescence decrease slope, 10 min; at 10 µM; stronger effect = lower value
value-kind: NADPH fluorescence slope
Please give the numeric answer without any surrounding text.

-- ask GET /values?readout=NADPH fluorescence slope&system=Voltage-gated potassium channel subunit beta-2 (Rattus norvegicus) (UniProt P62483)&item= Cc1ccc2c(c1)CCCN2C(=O)Nc1ccc2c(c1)OCO2
-- reply -4.4e-05

-- ask Request body: readout NADPH fluorescence slope, system Voltage-gated potassium channel subunit beta-2 (Rattus norvegicus) (UniProt P62483), query COc1ccc(C2/C(=C(/O)c3ccccc3)C(=O)C(=O)N2C)cc1 (stereo not drawn) . Return the value.
-- reply 4.1e-06

-- ask What is its NADPH fluorescence slope for Voltage-gated potassium channel subunit beta-2 (Rattus norvegicus) (UniProt P62483)? Entry: O=C(c1cccc(C(=O)N2CCN(c3ccccc3)CC2)c1)N1CCN(c2ccccc2)CC1
-- reply 3e-05

-- ask Hello, I am looking for reported NADPH fluorescence slope with Voltage-gated potassium channel subunit beta-2 (Rattus norvegicus) (UniProt P62483) for O=C1CCCCCN1CSc1nc2ccccc2s1 . Could you help?
-- reply -0.000138

Further cases:
-- ask For Voltage-gated potassium channel subunit beta-2 (Rattus norvegicus) (UniProt P62483), provide NADPH fluorescence slope of Cc1ccc2nc(-c3ccccn3)cc(C(=O)N3CCN(c4ncccn4)CC3)c2c1 please.
-- reply -5.1e-05

-- ask Form: Entry = O=C(c1ccc2nc(N3CCOCC3)sc2c1)N1CCCC1 | System = Voltage-gated potassium channel subunit beta-2 (Rattus norvegicus) (UniProt P62483) | NADPH fluorescence slope = ____
-- reply -2.7e-05
